// provenance: patent US20220144956A1

Reported pKd is given for each of the following binders.
# target.or.test.system: human TGFßRII (antigen of the Octet experiments) (human, UniProt P37173 23-166)
# Sequence (P37173 23-166): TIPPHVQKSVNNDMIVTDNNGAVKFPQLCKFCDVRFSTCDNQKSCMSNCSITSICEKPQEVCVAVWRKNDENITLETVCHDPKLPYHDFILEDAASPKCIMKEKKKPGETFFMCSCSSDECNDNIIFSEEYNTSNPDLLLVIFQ
# assay.comment: BLI (Octet)
// scale note: pKd = -log10(conc_M); give the bare number

Use these answered entries as a reference point.
binder | pKd
H1 L1.25 XENP34588 (antibody, V domains shown) VH: QLQVQESGPGLVKPSETLSLTCTVSGGSISNSYFSWGWIRQPPGKGLEWIGSFYYGEKTYYNPSLKSRATISIDTSKSQFSLKLSSVTAADTAVYYCPRGPTMIRGVIDSWGQGTLVTVSS VL: EIVLTQSPATLSLSPGERATLSCRASQSVRSYLAWYQQKPGQAPRLLIYDASTRATGIPARFSGSGSGTDFTLTISSLEPEDFAVYYCQQRSNWPPTFGQGTKVEIK | 9.04
H1 L1.9 XENP34572 (antibody, V domains shown) VH: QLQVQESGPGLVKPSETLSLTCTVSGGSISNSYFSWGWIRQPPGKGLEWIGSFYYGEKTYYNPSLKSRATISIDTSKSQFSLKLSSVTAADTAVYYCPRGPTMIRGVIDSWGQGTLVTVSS VL: EIVLTQSPATLSLSPGERATLSCRASQSVQSYLAWYQQKPGQAPRLLIYDASNRATGIPARFSGSGSGTDFTLTISSLEPEDFAVYYCQQRSNWPPTFGQGTKVEIK | 7.79
H1 L1.42 XENP34605 (antibody, V domains shown) VH: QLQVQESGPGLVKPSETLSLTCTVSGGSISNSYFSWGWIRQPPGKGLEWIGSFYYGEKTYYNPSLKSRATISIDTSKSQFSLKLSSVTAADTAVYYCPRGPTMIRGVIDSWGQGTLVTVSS VL: EIVLTQSPATLSLSPGERATLSCRASQSVRSYLAWYQQKPGQAPRLLIYDASNRATGIPARFSGSGSGTDFTLTISSLEPEDFAVYYCQQRGNWPPTFGQGTKVEIK | 8.53
H1 L1.11 XENP34574 (antibody, V domains shown) VH: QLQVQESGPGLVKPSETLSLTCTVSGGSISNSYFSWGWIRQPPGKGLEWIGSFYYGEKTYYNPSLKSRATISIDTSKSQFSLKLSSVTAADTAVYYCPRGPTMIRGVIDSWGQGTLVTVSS VL: EIVLTQSPATLSLSPGERATLSCRASQSVRNYLAWYQQKPGQAPRLLIYDASNRATGIPARFSGSGSGTDFTLTISSLEPEDFAVYYCQQRSNWPPTFGQGTKVEIK | 9.22

Moving on to another binder below.
pKd reading for H1 L1.18 XENP34581 (antibody, V domains shown) VH: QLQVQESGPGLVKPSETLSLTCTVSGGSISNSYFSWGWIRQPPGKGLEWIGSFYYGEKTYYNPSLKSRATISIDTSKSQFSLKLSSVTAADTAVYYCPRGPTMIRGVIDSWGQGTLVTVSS VL: EIVLTQSPATLSLSPGERATLSCRASQSVRSYLAWYQQKPGKAPRLLIYDASNRATGIPARFSGSGSGTDFTLTISSLEPEDFAVYYCQQRSNWPPTFGQGTKVEIK : 9.08
